The reported numbers originate from the supplement of paper PMC5844555.

system: MYT1L; test: 3' UTR reporter interaction score (median-centred robust z-score of log2 firefly/Renilla activity); higher = less repression of the 3' UTR reporter; details: HEK293T; 48 h
Label scheme for 3' UTR reporter interaction score: zone 1: < -0.8; zone 2: ≥ -0.8 and < 0.7; zone 3: ≥ 0.7

Some entries whose results are on file:
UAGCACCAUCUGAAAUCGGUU
zone 2
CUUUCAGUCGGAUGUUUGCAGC
zone 2
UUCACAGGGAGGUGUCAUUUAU
zone 3
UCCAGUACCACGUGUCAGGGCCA
zone 3
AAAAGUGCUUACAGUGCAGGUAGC
zone 1
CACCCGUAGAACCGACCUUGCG
zone 2
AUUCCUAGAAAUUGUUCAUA
zone 3

Continue with the sequence presented below.
Into which category would you place "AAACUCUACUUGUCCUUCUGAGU" ?
zone 1

---

test system: FBXW7; assay: 3' UTR reporter interaction score (median-centred robust z-score of log2 firefly/Renilla activity); higher = less repression of the 3' UTR reporter; details: HEK293T; 48 h
Mark Fulfilled for reported 3' UTR reporter interaction score of 0.1 or greater; mark Not fulfilled for anything smaller.

Some entries whose results are on file:
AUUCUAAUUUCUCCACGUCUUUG
Not fulfilled
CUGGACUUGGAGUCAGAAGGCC
Not fulfilled
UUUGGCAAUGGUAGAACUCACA
Not fulfilled
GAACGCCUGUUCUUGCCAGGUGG
Not fulfilled
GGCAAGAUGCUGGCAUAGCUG
Fulfilled

Say whether "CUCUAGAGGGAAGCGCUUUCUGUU" shows 3' UTR reporter interaction score of 0.1 or more.
Not fulfilled

"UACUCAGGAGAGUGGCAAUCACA" , same question.
Not fulfilled

"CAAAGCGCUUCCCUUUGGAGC" , same question.
Fulfilled

"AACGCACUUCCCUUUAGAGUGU" , same question.
Fulfilled

"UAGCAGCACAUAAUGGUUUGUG" , same question.
Not fulfilled

"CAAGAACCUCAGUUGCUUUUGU" , same question.
Not fulfilled

"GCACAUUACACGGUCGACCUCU" , same question.
Fulfilled

"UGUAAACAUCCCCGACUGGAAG" , same question.
Not fulfilled

---

system: MYT1L; experiment: 3' UTR reporter interaction score (median-centred robust z-score of log2 firefly/Renilla activity); higher = less repression of the 3' UTR reporter; settings: HEK293T; 48 h
Metric Name: 3' UTR reporter interaction score
Returns: the value as a bare number; no unit string appended.

These solved cases illustrate the format of a correct answer.
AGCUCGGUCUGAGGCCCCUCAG
3.65
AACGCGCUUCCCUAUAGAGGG
-0.267
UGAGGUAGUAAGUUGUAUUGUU
0.292
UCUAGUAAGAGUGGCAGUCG
-0.214

Fill in the blank: the reported 3' UTR reporter interaction score of "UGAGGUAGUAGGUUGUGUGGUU" is ____.
0.566

"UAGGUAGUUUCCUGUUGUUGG" , same question.
-0.34

"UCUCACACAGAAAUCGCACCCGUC" , same question.
-0.241

---

test system: NOTCH1; assay: 3' UTR reporter interaction score (median-centred robust z-score of log2 firefly/Renilla activity); higher = less repression of the 3' UTR reporter; details: HEK293T; 48 h
Mark Condition met for reported 3' UTR reporter interaction score of 0.2 or greater; mark Condition not met for anything smaller.

Some entries whose results are on file:
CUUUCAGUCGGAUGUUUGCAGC
Condition met
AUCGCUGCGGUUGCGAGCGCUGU
Condition not met
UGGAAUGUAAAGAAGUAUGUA
Condition not met
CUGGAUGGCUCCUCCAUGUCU
Condition not met
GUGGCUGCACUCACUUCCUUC
Condition met
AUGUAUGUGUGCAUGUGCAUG
Condition not met

Say whether "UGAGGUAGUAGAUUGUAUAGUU" shows 3' UTR reporter interaction score of 0.2 or more.
Condition not met

"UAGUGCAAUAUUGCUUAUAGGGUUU" , same question.
Condition met
